System: EPHB2 kinase domain
assay.name: pTyr-Var library bacterial peptide display kinase screen (enrichment scores);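 further: log2 fold change in enrichment of variant over reference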
Format: biochemical, human
measurement.context: sheet EPHB2; effect of the variant relative to its reference peptide in the pTyr-Var library screen
Please respond with reported Screen for every item in the list.

INSERT INTO results (macromolecule_sequence, reported_property, result) VALUES
  ('FSPCDYQPCLA [TNS1_Y798_Y796C_YF]', 'Screen', 3.039);

Value sought for every listed sequence: Screen.
1. QLQQAYQEAFE [YWHAZ_Y149_S145L]
2. MVIPNYSSWTE [UROC1_Y185_R188W]
3. RPPELYALMSD [ZAP70_Y569_C564R]

Result ::
1.539
4.793
1.779

Query :: Quick one: Screen for ACCLLYCGDVV [TUBA4A_Y319_R320C] ?
Result :: 3.709

###

Tested on: Fer kinase domain
assay.name: pTyr-Var library bacterial peptide display kinase screen (enrichment scores);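 further: log2 fold change in enrichment of variant over reference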
Type: biochemical, mouse
measurement.context: sheet "Fer"; value of the variant peptide against its reference peptide in the pTyr-Var library screen with Fer
Tick class 1 if Screen is 1 or greater. Tick class 0 if Screen is less than 1.

Use these answered entries as a reference point.
INSERT INTO assay_data (macromolecule_sequence, classification) VALUES
  ('LENSTYQFIHV [CRB1_Y760_R764H_YF]', 'class 0'),
  ('VDSAHYQLLET [DTX3L_Y385_K386Q]', 'class 1'),
  ('LNEAVYTKMMT [G6PD_Y401_P396L]', 'class 1'),
  ('TTGGFYSFGGG [KRT24_Y120_A115T_YF]', 'class 0');

Query :: // inclusive: Screen at least 1? input: INQGPYENHSV [ATP6V1B1_Y462_R465H]
Result :: class 1

Query :: Is Screen for IGEVVYQWAVM [GRIN2A_Y502_R504W] at or above 1?
Result :: class 1

Query :: API: above_or_equal(metric=Screen, cutoff=1) for item GQRDLYSGLNE [CD3E_Y199_Q204E]
Result :: class 0

Query :: Does Screen meet or surpass 1 for FDGGCYEQLFV [MC4R_Y41_S36Y_YF] ?
Result :: class 0

Query :: Please indicate if the recorded Screen for CGPLLYGLVHQ [PRKCG_Y122_S119P] meets or exceeds 1.
Result :: class 0

Query :: Record FQNSLYAPDFS [FAM92A_Y226_R222Q_YF] ; criterion: Screen no lower than 1. Met?
Result :: class 1

Query :: Does the sequence KRNSLYSFSDH [CCDC82_Y331_Q327R] have recorded Screen that is 1 or more?
Result :: class 0

Query :: Say whether DAKTIYDFTDT [PDK1_Y136_A134T] shows Screen of 1 or more.
Result :: class 0

###

For each of the sequences below, state its Screen.
Test system: Fer kinase domain
assay.name: pTyr-Var library bacterial peptide display kinase screen (enrichment scores);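 further: log2 fold change in enrichment of variant over reference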
Type: biochemical, mouse
measurement.context: sheet "Fer"; value of the variant peptide against its reference peptide in the pTyr-Var library screen with Fer
Answers are plain numbers.

These recorded examples may help you get a feel for the data.
INSERT INTO assay_data (macromolecule_sequence, reported_property, quantitative_result) VALUES
  ('QSSALYEDHFL [ASS1_Y83_R86H_YF]', 'Screen', 0.8014),
  ('GHLFAYDWIRI [BEST1_Y227_S231R_YF]', 'Screen', -0.2857),
  ('KVASVYEALGF [NT5C_Y65_P68L]', 'Screen', -0.5868);

# next sequence below
Query :: State the recorded Screen for this entry: PLDNLYAEPAV [PRPS1_Y146_V142L]
Result :: 0.1056

###

Would you kindly list Screen for each of these sequences?
study.target: c-Abl kinase domain (Mus musculus)
Sequence (P00520 242-493 limits assumed): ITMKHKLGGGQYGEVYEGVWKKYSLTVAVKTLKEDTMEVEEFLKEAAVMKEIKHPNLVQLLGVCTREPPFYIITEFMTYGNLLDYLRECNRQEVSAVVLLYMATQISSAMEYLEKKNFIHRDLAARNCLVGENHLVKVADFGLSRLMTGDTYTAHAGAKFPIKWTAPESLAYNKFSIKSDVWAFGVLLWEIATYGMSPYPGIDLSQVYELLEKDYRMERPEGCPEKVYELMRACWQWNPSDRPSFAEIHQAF
assay.name: pTyr-Var library bacterial peptide display kinase screen (enrichment scores);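 further: log2 fold change in enrichment of variant over reference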
Assay type: biochemical
measurement.context: sheet "Abl"; effect of variant peptide relative to its reference peptide in pTyr-Var library screen (enrichment)
One number for each entry.

Below, each entry is followed by its recorded Screen result.
INSERT INTO assay_data (macromolecule_sequence, quantitative_result) VALUES
  ('VKPENYRRLDV [VHL_Y175_I180V]', -5.31),
  ('QLQQAYQEAFE [YWHAZ_Y149_S145L]', 2.922),
  ('RLDGEYFTLQI [TP53_Y327_P322R]', 0.2276),
  ('EEETDYTPVWC [UROD_Y30_G25E]', 0.6447),
  ('LMFPDYLPCSV [SAG_Y129_T125M]', 0.9994);

Below is a list of sequences. For each, state its recorded Screen.
1. RGKDNYETSQL [SPP1_Y225_S224N]
2. TDTAAYEERLR [SPTB_Y474_V478L]
3. FSALDYKIFFF [WDPCP_Y210_L205F_YF]
4. LSEEKYELKEG [TREM1_Y29_T25S]
5. RPPELYALMSD [ZAP70_Y569_C564R]
6. ACCLLYCGDVV [TUBA4A_Y319_R320C]
7. CDFKKYGKGLR [ZNF445_Y433_Y428C_YF]

Result ::
0.8642
-0.2404
-1.647
-1.268
3.577
-0.5266
1.206

###

For each entry below, report its Screen value.
System: EPHB2 kinase domain
assay.name: pTyr-Var library bacterial peptide display kinase screen (enrichment scores);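 further: log2 fold change in enrichment of variant over reference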
Format: biochemical, human
measurement.context: sheet EPHB2; effect of variant peptide relative to its reference peptide in the pTyr-Var library screen (enrichment scores)
Give bare numbers.

Solved entries:
INSERT INTO assay_data (macromolecule_sequence, quantitative_result) VALUES
  ('DAKTIYDFTDT [PDK1_Y136_A134T]', -1.665),
  ('AQQPIYIRVEG [NLRP7_Y318_V319I]', -2.079),
  ('GQRDLYSGLNE [CD3E_Y199_Q204E]', -0.7383),
  ('LVIIKYLPEWT [PSEN1_Y240_F237I]', 1.457),
  ('KVASVYEALGF [NT5C_Y65_P68L]', -0.4355);

Give Screen for each listed item.
1. RGKLFYQEVPA [METTL11B_Y76_A72G]
2. PFRKLYESVKK [MKI67_Y241_W238R]
3. KLPFLYDDPFS [GPX2_Y127_P126L_YF]
4. LDTFIYDAAVL [GRIN2A_Y730_A727T]

Result ::
1. -1.191
2. -2.876
3. 2.625
4. -0.5027

Query :: Any idea what Screen came out for LNCDRYSAGLL [PDE6A_Y275_V277A] on EPHB2 kinase domain?
Result :: -1.197

###

study.target: c-Src kinase domain (Homo sapiens, UniProt P12931)
assay.name: pTyr-Var library bacterial peptide display kinase screen (enrichment scores);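 further: log2 fold change in enrichment of variant over reference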
Type: biochemical
measurement.context: sheet "Src"; effect of the variant peptide relative to its reference peptide in the pTyr-Var library screen
reported.property: Screen
Answers are plain numbers.

For orientation, consider the following solved cases.
INSERT INTO measurements (macromolecule_sequence, study_target, reported_property, quantitative_result) VALUES
  ('IGEVVYQWAVM [GRIN2A_Y502_R504W]', 'c-Src kinase domain (Homo sapiens, UniProt P12931)', 'Screen', -0.09777),
  ('NTFENYWPFFQ [GATM_Y103_K102N_YF]', 'c-Src kinase domain (Homo sapiens, UniProt P12931)', 'Screen', 2.256),
  ('ITNLLYHLVGW [GBA_Y412_V414L]', 'c-Src kinase domain (Homo sapiens, UniProt P12931)', 'Screen', -0.6312),
  ('GVSFIYTIDGS [DCX_Y105_R102S_YF]', 'c-Src kinase domain (Homo sapiens, UniProt P12931)', 'Screen', 0.9806),
  ('FQKNSYSEELR [LMNA_Y211_I210S]', 'c-Src kinase domain (Homo sapiens, UniProt P12931)', 'Screen', -2.048);

For every record below, what is its Screen?
1. FDGGCYEQLFV [MC4R_Y41_S36Y_YF]
2. KLVQLYDVCTK [BTK_Y461_G462D]
3. EPFEVYRIVPE [IRF8_Y110_K108E_YF]

Result ::
0.4972
0.2967
2.655

Would you mind giving Screen for every sequence in the list below?
1. LERFIYNPEEF [HLA-DPB1_Y59_R61P_YF]
2. KCLAVYQAGAR [APOE_Y180_R176C]
3. TTGGFYSFGGG [KRT24_Y120_A115T_YF]

Result ::
[0.2405, 2.645, -0.1401]

For each entry beneath this line, provide reported Screen.
1. DLEKTYNTFRS [B4GALNT2_Y538_A533D_YF]
2. PLQHVYKIGGI [EEF1A2_Y254_D252H]

Result ::
[-0.01989, -2.182]
